Where do these numbers come from? They come from PubChem BioAssay (NCI).

Answer each item with its documented growth.
tested on: SNB-75 CNS; test: NCI-60 one-dose screen, 48 h (100 = growth as untreated, 0 = no growth, -100 = all killed); details: 10 µM unless noted
About 83,000 compounds went through this panel and 20% of them were active in at least one assay; those are over-represented in the sample as a whole. Calls of active or inactive are those of the source. How the source made its calls: active means growth percent below 10; inactive means the rest.

Examples from the recorded data:
| molecule | result |
| --- | --- |
| CC1=N/C(=C\c2cccc(Br)c2)C(=O)O1 | 97.7% (inactive) |
| COc1ccc(-c2cc(-c3cccnc3)nc3sc4c(=O)n(-c5ccc(C)cc5)cnc4c23)cc1OC | 74.9% (inactive) |
| C/C(=C(/c1ccc(O)cc1)c1ccc(OCCN(C)C)cc1)c1ccccc1 | 53.4% (inactive) |

Batch lookup, growth per entry.
1. Cc1cc2c(cc1C)NC1=C(N2)OC(c2c3ccccc3cc3ccccc23)C1=O (stereo not given)
2. O=c1c2c3c(sc2n2c(CCl)nnc2n1Cc1ccccc1)CCCC3

Reply:
1. 49.4% (inactive)
2. -61.3% (active)

----------
Answer each item with its documented growth.
tested on: HCT-15 colon; assay: NCI-60 one-dose screen, 48 h (100 = growth as untreated, 0 = no growth, -100 = all killed); conditions: 10 µM unless noted
This is part of a sample that, as a whole, favours compounds with a hit. Of some 83,000 tested, about 20% had one in any assay.
Answers are plain numbers, in %.

Examples from the recorded data:
| compound | testSystem | assayReadout | recordedNumber |
| --- | --- | --- | --- |
| CCOC(=O)C(=Cc1ccccc1F)C(=O)OCC | HCT-15 colon | growth | 86.9 |
| C=C1C(=O)O[C@H]2[C@H]1CC/C(Cn1cc(Cn3ccc4ccccc43)nn1)=C\CC[C@@]1(C)O[C@@H]21 | HCT-15 colon | growth | -34.5 |
| O=C1CCc2c(sc3[nH]c(=S)n(Cc4ccccc4)c(=O)c23)C1 | HCT-15 colon | growth | 7.5 |
| CC1(C)CC(C(=O)OCCCCCCCCCCC[P+](c2ccccc2)(c2ccccc2)c2ccccc2)C(C)(C)N1O (stereo not given) | HCT-15 colon | growth | 88.5 |
| CC/C=C\C[C@H](O)C/C=C1/C(=O)C=C[C@@H]1C/C=C\CCCC(=O)OC(C)C | HCT-15 colon | growth | -33.5 |

Batch lookup, growth per entry.
1. c1ccc(CSc2ncnc3nc[nH]c23)nc1
2. COc1cnc2c(c1)C(=O)c1c-2n(CCCN2CCNCC2)c(=O)c2cc([N+](=O)[O-])ccc12
3. OCC1C2C=CC(C2)C1CO (stereo not given)
4. CSc1nc(NCCO)c(C#N)c(-c2cccc(N)c2)n1
5. COc1cccc(/C=C\C(=O)c2ccccc2)c1

Reply:
1. 103
2. -80.7
3. 110
4. 98.1
5. 66.3

----------
Tested on: SF-539 CNS
Assay: NCI-60 one-dose screen, 48 h (100 = growth as untreated, 0 = no growth, -100 = all killed)
Conditions: 10 µM unless noted
Method: Cells are grown in 96 well plates and exposed to the test compound for 48 hours. Compounds are tested at a single concentration, which is 10^-5 M for most compounds. The reported endpoint is percent growth (GI% or GIPRCNT), where numbers from 0 - 100% represent growth inhibition, and numbers from -100% - 0 represent cell death. For example, a value of 40 represents 60% growth inhibition. A value of 0 means no net growth occurred over the course of the experiment. […]
This is part of a sample that, as a whole, favours compounds with a hit. Of some 83,000 tested, about 20% had one in any assay. The source made the active and inactive calls. How the source made its calls: active means growth percent below 10; inactive means the rest.
Answer each item with its documented growth.

Examples from the recorded data:
| compound | growth |
| --- | --- |
| O=[N+]([O-])c1cccc(-c2nc3sccn3c2-c2ccnc(NCCNS(=O)(=O)c3ccc(C(F)(F)F)cc3)n2)c1 | 74.5% (inactive) |
| Cc1cc(Nc2nc(N3CCNCC3)nc3ccccc23)n[nH]1 | 79.4% (inactive) |
| COc1ccc2nc(NC(=O)c3cccnc3Nc3cc(OC)c(OC)c(OC)c3)sc2c1 | -57.1% (active) |
| Cn1c2ccccc2c2c3c(c4c5ccccc5[nH]c4c21)C(=O)N(N)C3=O | 20.2% (inactive) |
| CCOC(=O)c1nc(Nc2cc(C)[nH]n2)c2ccccc2n1 | 95.5% (inactive) |
| Nc1nc2ccc(-c3nc4ccc5[nH]ncc5c4c4c3CCC4)cc2s1 | 3.96% (active) |

Batch lookup, growth per entry.
1. Cc1cccc(NC(=O)c2sc3nc4c(cc3c2N)C(=O)CCC4)c1
2. CN[C@@]12CC3(C=CC(=O)C=C3)O[C@]1(Cc1ccc(OC)cc1)N(C)C(=O)N2

Reply:
1. -27.7% (active)
2. 45.3% (inactive)

Batch lookup, growth per entry.
1. CN1CCN(Cc2ccc(NC(=O)c3[nH]ncc3Nc3ncnc4sccc34)cc2)CC1
2. Cc1cc(N/N=C/c2nc(-c3ccc(Cl)cc3)oc2C)c2cc(Br)ccc2n1
3. O=S(=O)(Nc1ccc(F)c(Cl)c1)c1ccc(-c2cnc(C3CC3)o2)cc1

Reply:
-30.2% (active)
87.3% (inactive)
-14.7% (active)

Batch lookup, growth per entry.
1. COc1cc(NCCCCCN=C(N)NC(N)=NC(C)C)c2ncccc2c1
2. O=C1C=CC(=O)c2c1nc1n2CCCC1
3. CC[C@H](Nc1ncnc(N)c1C(N)=O)c1nc2cccc(NCc3ccc(C(=O)NO)cc3)c2c(=O)n1-c1ccccc1
4. O=S(=O)(Nc1ccc(Cl)cc1Cl)c1ccc(-c2cnc(C3CC3)o2)cc1

Reply:
1: 44.9% (inactive); 2: 74.9% (inactive); 3: 75.1% (inactive); 4: -13.5% (active)
